# credit: ChEMBL document CHEMBL4689842

System: Fibroblast
Assay: Multiplex assay against human fibroblast
Format: toxicity, cell-based
Conditions: 24 h, 1 µM, compound concentration 1 uM, replicate 2
Form field: Population Hoechst High Intensity Objects (%) (one value per entry).
State the answer as a number, implicitly in %.

Using Fibroblast as the test system, report measured Population Hoechst High Intensity Objects (%) of `NC(=O)c1cccc(-c2cc(Nc3ccc(OC(F)(F)F)cc3)ncn2)c1` .
26

Using Fibroblast as the test system, report measured Population Hoechst High Intensity Objects (%) of CN(C)C(=O)C(CCN1CCC(O)(c2ccc(Cl)cc2)CC1)(c1ccccc1)c1ccccc1.Cl [LOPERAMIDE HYDROCHLORIDE] .
4

Using Fibroblast as the test system, report measured Population Hoechst High Intensity Objects (%) of CCN1CCN(c2ccc(Nc3cc(N(C)C(=O)Nc4c(Cl)c(OC)cc(OC)c4Cl)ncn3)cc2)CC1 [INFIGRATINIB] .
46

Using Fibroblast as the test system, report measured Population Hoechst High Intensity Objects (%) of C=C1/C(=C\C=C2/CCC[C@]3(C)[C@@H]([C@H](C)/C=C/[C@H](C)C(C)C)CC[C@@H]23)C[C@@H](O)C[C@@H]1O [DOXERCALCIFEROL] .
4

Using Fibroblast as the test system, report measured Population Hoechst High Intensity Objects (%) of `CCn1c(=O)c(-c2ccc(-c3cncs3)cc2Cl)cc2cnc(Nc3ccc(N4CCN(C)CC4)cc3)nc21` .
4

Using Fibroblast as the test system, report measured Population Hoechst High Intensity Objects (%) of COc1ccc(-c2ccc3c(N4CCOCC4)nc(N4C[C@@H](C)O[C@@H](C)C4)nc3n2)cc1CO [Ku-0063794] .
25

Using Fibroblast as the test system, report measured Population Hoechst High Intensity Objects (%) of `CCc1cccc(CC)c1NC(=O)c1nn(C)c2c1CCc1cnc(Nc3ccc(C(=O)NC4CCN(C)CC4)cc3OC(F)(F)F)nc1-2` .
10

Using Fibroblast as the test system, report measured Population Hoechst High Intensity Objects (%) of `CCc1cccc(CC)c1NC(=O)c1nn(C)c2c1CCc1cnc(Nc3ccc(N4CCN(C)CC4)cc3OC)nc1-2` .
30

Using Fibroblast as the test system, report measured Population Hoechst High Intensity Objects (%) of O=C(Cc1ccc(-c2ccc(OCCN3CCOCC3)cc2)cn1)NCc1ccccc1 [TIRBANIBULIN] .
9

Using Fibroblast as the test system, report measured Population Hoechst High Intensity Objects (%) of Cn1nc(C(F)(F)F)cc1-c1cnc(N2CCc3cc(S(=O)(=O)Nc4c(F)cc(Cl)cc4F)cc(N4CCCC4=O)c32)nc1 [TP-020] .
36
